// values below are reported glycan array binding signal (z-score)
Molecular target: Neu5Ac(a2-3)Gal(b1-4)GlcNAc(b1-3)Gal(b1-4)GlcNAc(b1-2)Man(a1-3)[Neu5Ac(a2-3)Gal(b1-4)GlcNAc(b1-3)Gal(b1-4)GlcNAc(b1-2)Man(a1-6)]Man(b1-4)GlcNAc(b1-4)GlcNAc
Assay: glycan array binding signal (z-score within array); higher = stronger binding
Details: glycan notation: IUPAC condensed, linker removed
About 410 targets per protein were measured; listed, in parts, are those with the strongest signals and a random draw of the rest.
Endpoint Name: glycan array binding signal (z-score)

{"columns": ["Binder", "Endpoint Name", "Recorded Result"],
 "data": [
  ["Gal 1 (Mus musculus), P16045 (protein) MACGLVASNLNLKPGECLKVRGEVASDAKSFVLNLGKDSNNLCLHFNPRFNAHGDANTIVCNTKEDGTWGTEHREPAFPFQPGSITEVCITFDQADLTIKLPDGHEFKFPNRLNMEAINYMAADGDFKIKCVAFE", "glycan array binding signal (z-score)", 1.31],
  ["SJA (Sophora japonica) (protein) FLGLFNSGGYSSSYQIVAVEFDTYINEWDPKTRHIGIDINSINSTKTVTWGWENGEVAIVLISYKAATETLTVSLTYPSSQTSYILSAAVDLKSILPEWVRIGF", "glycan array binding signal (z-score)", 0.783]
]}
